Target: T1, interleukin-23 receptor (IL-23R), Q5VWK5
T1 chain: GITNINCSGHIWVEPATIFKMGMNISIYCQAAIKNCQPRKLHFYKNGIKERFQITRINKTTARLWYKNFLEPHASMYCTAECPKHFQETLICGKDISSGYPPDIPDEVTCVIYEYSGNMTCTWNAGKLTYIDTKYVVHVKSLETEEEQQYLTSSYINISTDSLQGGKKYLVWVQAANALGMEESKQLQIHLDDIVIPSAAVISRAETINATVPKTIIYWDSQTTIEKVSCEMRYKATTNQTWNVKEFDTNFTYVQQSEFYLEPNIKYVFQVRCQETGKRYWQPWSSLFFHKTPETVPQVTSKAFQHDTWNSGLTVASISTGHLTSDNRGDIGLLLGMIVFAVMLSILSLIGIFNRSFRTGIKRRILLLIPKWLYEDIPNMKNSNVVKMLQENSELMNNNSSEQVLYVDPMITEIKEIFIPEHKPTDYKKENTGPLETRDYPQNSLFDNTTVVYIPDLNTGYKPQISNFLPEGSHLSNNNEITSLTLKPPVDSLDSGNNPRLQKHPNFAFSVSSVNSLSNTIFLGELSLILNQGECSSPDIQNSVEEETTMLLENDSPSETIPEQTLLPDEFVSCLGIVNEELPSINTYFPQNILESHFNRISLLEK
Assay: cell-based or functional assay
Starred links: 1 amine or outer side, 2 acyl side, 3 side chain; linkers in the order of their positions; H or OH if unused. Positions of bridges follow the written chain, without caps; N, C: chain ends. Non-standard residues stand in square brackets, D forms with d. No end group written: not given here. X1 = 3‑(7-(3-acetamidophenyl)-1H-indol-3-yl)‑2‑aminopropanoic acid, CC(=O)Nc1cccc(-c2cccc3c(CC(N[*:1])C(=O)[*:2])c[nH]c23)c1; 2Nal(6-OH) = N[C@@H](Cc1ccc2cc(O)ccc2c1)C(=O)O; Trp(7-Me) = Cc1cccc2c(C[C@H](N)C(=O)O)c[nH]c12; AEF = NCCOc1ccc(C[C@H](N)C(=O)O)cc1; 3Pal = N[C@@H](Cc1cccnc1)C(=O)O; Lipidated = not defined here; Pen = CC(C)(S)[C@H](N)C(=O)O; lipid = not defined here; Thp = NC1(C(=O)O)CCOCC1; Sar = CNCC(=O)O
assayEndpoint: PBMC pSTAT3 IC50

Consider the reported PBMC pSTAT3 IC50 for these binders:
- binder: "[Pen]NT[X1]K[Pen][2‑amino‑3‑(4-(2-aminoethoxy)phenyl)propanoic acid][2‑amino‑3‑(6-hydroxynaphthalen-2-yl)propanoic acid][Thp]K(Ac)N[3Pal][Sar] (disulfide 1-6 (inferred); ends not checked; also: Lys5: lipidated lysine, lipid not given here) [SEQ ID NO: 152]"
  observedMeasurement: "< 1 nM"
- binder: "[Pen]NT[Trp(7-Me)]K(Lipidated)[Pen][2‑amino‑3‑(4-(2-aminoethoxy)phenyl)propanoic acid][2‑amino‑3‑(6-hydroxynaphthalen-2-yl)propanoic acid][Thp]K(Ac)N[3Pal][Sar] (disulfide 1-6 (inferred); ends not checked; also: K5 lipidated lysine, lipid not given here) [SEQ ID NO: 188]"
  observedMeasurement: "< 1 nM"

Now consider the entry below.
Short answer for R[Pen]NT[Trp(7-Me)]K(Ac)[Pen][AEF][2Nal(6-OH)][Thp]EN[3Pal][Sar]K(lipid) (disulfide 2-7 (inferred); ends not checked; also: Lys15 lipidated, lipid not given here) [SEQ ID NO: 244] : PBMC pSTAT3 IC50 was < 1 nM
